Provide the recorded Emax at 10 µM for the entries that follow.
tested on: L6-myotubes; experiment: Glucose uptake in differentiated L6-myotubes (Biological Example 2); format: cell-based; settings: glucose uptake; compound at 10 μM relative to isoproterenol at 10 μM; read-out: Biological example 2 (GU)

Name the reported Emax at 10 µM value associated with the compound C[C@H]1CC[C@@H]([C@H](O)c2cccc(O)c2)N1 (racemic) 50 to 75%

Name the reported Emax at 10 µM value associated with the compound CCC[C@H]1CCC[C@H]([C@@H](O)c2ccccc2F)N1 25 to 50%

Name the reported Emax at 10 µM value associated with the compound CC12CCC([C@@H](O)c3cccc(Cl)c3)(CC1)N2 25 to 50%

Name the reported Emax at 10 µM value associated with the compound CCCCNCC(O)c1ccc(=O)[nH]c1 (stereo not drawn) 25 to 50%

Name the reported Emax at 10 µM value associated with the compound CCC[C@@H]1CCC[C@@H]([C@@H](O)c2cccc(Cl)c2)N1 25 to 50%

Name the reported Emax at 10 µM value associated with the compound CC12CCC([C@@H](O)c3ccccc3F)(CC1)N2 > 75%

Name the reported Emax at 10 µM value associated with the compound CCC[C@H]1CCC[C@@H]([C@@H](O)c2cccc(O)c2)N1 > 75%

Name the reported Emax at 10 µM value associated with the compound Oc1ccc(C(O)CNCC2CC2)cc1 (stereo not drawn) 50 to 75%

Name the reported Emax at 10 µM value associated with the compound CC1(C)CCC[C@H]([C@@H](O)c2ccccc2F)N1 > 75%

---

Test system: L6-myotubes
Test: Glucose uptake in differentiated L6-myotubes (Biological Example 2)
Type: cell-based
Settings: glucose uptake in differentiated L6-myotubes; compound at 10 μM, activity relative to isoproterenol at 10 μM; read-out: Biological example 2 (GU)
Description: Compounds described in publications referenced and incorporated herein were screened in accordance with the procedures outlined in Biological example 2 and Biological example 3. […]
REPORTED_ENDPOINT: Emax at 10 µM

GET /values?readout=Emax at 10 µM&system=L6-myotubes&item= COC(=O)[C@H]1CC[C@@H](C(C)(C)NC[C@H](O)c2cncc(F)c2)CC1 [Compound 321] 50 to 75%

GET /values?readout=Emax at 10 µM&system=L6-myotubes&item= O[C@@H](CNCC[C@H]1CC[C@@H](O)CC1)c1cncc(F)c1 [Compound 293] 25 to 50%

GET /values?readout=Emax at 10 µM&system=L6-myotubes&item= CO[C@H]1CC[C@H](CNC[C@H](O)c2cncc(F)c2)CC1 [Compound 229] 50 to 75%

GET /values?readout=Emax at 10 µM&system=L6-myotubes&item= Cc1ncccc1[C@@H](O)CNC(C)(C)C[C@H]1CC[C@H](NS(C)(=O)=O)CC1 [Compound 435] 25 to 50%

GET /values?readout=Emax at 10 µM&system=L6-myotubes&item= CCC[C@H]1CCCC[C@@H]([C@@H](O)c2cncc(F)c2)N1 [Compound 235] < 25%

GET /values?readout=Emax at 10 µM&system=L6-myotubes&item= CC12CC(C1)[C@H]([C@H](O)c1ccccc1F)N2 [Compound 210] > 75%
